Experiment: folding stability dG unfold (combined trypsin and chymotrypsin); higher = more stable
Field: folding stability dG unfold. Provide a value for each of the sequences that follow.
Please respond with the number in kcal/mol and leave the unit unwritten.

State its folding stability dG unfold: SAGGSAGGSAGGPGWRTIEFWIPVDDFLDEIKLPPGITPIRIIKPNPNGYVRIMIIYPYSAGGSAGGSAGGS [r10_352_TrROS]
2.89

Entry SAGGMPLEDMSLEELKARLEEALEELRAKLPPGEKKTLTLTVTLTVVDKETGETRTVTLTVTLTLPAPSAGG [r13_385_TrROS_Hall] needs its folding stability dG unfold filled in; supply it.
4.16

Check the records and state folding stability dG unfold for SMKILNDPNIKKVIPVFLMLMSPEEFKKLAEKLANGIKKELEEKGFPIPKDIEIKIIPFKSPEELKKALKSA [r9_204_TrMRF]
1.93

Indicate its recorded folding stability dG unfold; the sequence in question is SAGGKVEVELEDGKLRVKVFDKNGKLVEEVEVELKPVTIVIPGLSEEELQELKEKFPGAKITILEGQKSAGG [r13_235_TrROS_Hall]
2.39

Please report the measured folding stability dG unfold for SAGGSAGGSMEKRKLEIEIHLPASEATEEEMEELAEEYAKKNPEADEVTFKFTVEESDKESLESAGGSAGGS [r20_86_JUSTAS]
-0.605

Identify the reported folding stability dG unfold for the following entry. SAGGSAGGSAGGMVTVETAPAPEGTERVIRVTFLEVNPEDGTIVRPATLTFVVPPGDPLSAGGSAGGSAGGS [r10_86_TrMRF]
0.686

Tell me measured folding stability dG unfold for SAGGSAGGSAGPLSTVTETTTTVPLPNGEVLTVTTYTYPDLGVTTVTTTYPDGTVTTTTIPVSAGGSAGGSA [r18_88_JUSTAS] please.
2.47

Recall and state the measured folding stability dG unfold for SAGGKTITIKVKLENGEEKTIEVKVDEVKIEKKNGKLVITFKDGKKITIPLDKIEDMSEDEIKKLLEKSAGG [r13_925_TrROS_Hall] .
2.97

Name the recorded folding stability dG unfold of the item SAGGMLSRESTDPGPGRRTLTREEPLPDGTVPVTVTTESPDPSVTTVETRLVFPGPAVETPTRTAAPSAGGS [r16_684_JUSTAS] in your answer.
0.281

Consider the sequence SAGGSAGGSGEVLLLSANSFSFSEGDGLLVVVNLPNGGYVVLPFKKGDLNLNLPSSGYSEFFGSAGGSAGGS [r12_746_TrMRF] . State its measured folding stability dG unfold.
1.59

Entry SAGGKPVRILVIAGKGIRPLEIPVDEDKTVEAEFKFGDHTIRIRVSPKEKKIEVEAPSNFKIIILEPSAGGS [r16_761_TrMRF] needs its folding stability dG unfold filled in; supply it.
2.98

Give the measured folding stability dG unfold for SAGGSAMSLSDIKDVDVYRNPNGWYTAKLKIKDPNNGKDKEVNIHVPPGQTPEKAKNIAREILKELSAGGSA [r15_181_TrROS]
1.14

Read the entry SAGGSAGGSAGDEPNDVVKIDFTFFFEDGYMIEMDIVIVPNGNIAIEIEIEPIKPPDEGDSAGGSAGGSAGG [r11_998_TrROS] and write its reported folding stability dG unfold.
2.09

Supply folding stability dG unfold value. Item: SAGGSAGGSAGKPEFELIAKIEVNGKTYYILRNKETGEYLIYDLDTGKKYTIRKDDPNLLSAGGSAGGSAGG [r11_1007_TrROS_Hall]
2.78

Tell me folding stability dG unfold reported for SAIEIYIYPDNWMISIEPPNPNGPEKEIMIPIDKDDLKNPEFLKEIADEIMENGIPVEADIMPPGQPIPSAG [r14_60_TrROS]
0.307

Note folding stability dG unfold for the sequence shown: SAGGSAGGSAKSVVRIKIYNKKTGKVLEIEIPENMTEEEIKKLAEELAKKNNVEIVEVEKVPSAGGSAGGSA [r18_322_TrROS_Hall]
2.63

Output folding stability dG unfold of SAGGSAGGSGMTAEEAREKKVAELKAQGYTPVKVEVVETRTDPATGKVTTKIKIEYKSPKGLTSAGGSAGGS [r20_46_JUSTAS]
0.275

Supply recorded folding stability dG unfold for SAGGSAMRMERIKLPDGKDITIMRHPNEPRQYQLFFPGGRSISVNFPSPEEAIDHALEWIKNGKPFSAGGSA [r15_38_TrROS] here.
0.78

Given the sequence SAGGSATAEELADEIANYMADRHGMEVKKIEITDVDNDRVVFRAEVEMPNPNGKKHTHPFTIEIPVSAGGSA [r15_276_TrROS] , write its reported folding stability dG unfold.
0.226

Recall and state the measured folding stability dG unfold for SAGGSAGGSAGGMREIAREIWEEYNNPVTIRIRNPNGKHEPFRFPDDPEDIPGWDIDDITSAGGSAGGSAGG [r7_998_TrROS] .
0.463

Give folding stability dG unfold for SAGGGSVSITLELEEEEEIEEIVNEKGIPEPLEKRIKKKVTITISPPPTLSSSSSVTGLAEKAIEEKSAGGS [r16_359_JUSTAS]
0.101

Return folding stability dG unfold (reported value) for this sequence: SAGGSAGGNLTLPPDNIKRIWHVGDGHWLIKMDDNVLMINPGNGKIQTVKKEDADKLPPGDPFFSAGGSAGG [r6_890_TrROS]
0.0115

Identify the reported folding stability dG unfold for the following entry. SAGGGPPSSMVKKTYTVTGTDPDALAAAVRAAIAAAHPDVEITEVTVSRDPSSDRYTVTVDVLSSVASAGGS [r8_120_JUSTAS]
2.51

Return folding stability dG unfold for the following sequence: SAGEEIEELAKKLADELREKYPELEVKVEVVEVTVKTTVVKDKETGKLYTKTEITVKLKVEVVPKEELSAGG [r19_293_TrROS_Hall]
3.08
